molecular target: Recombinant Human TNF-α/TNFSF1A (human, UniProt P01375 77-233); test: cell-based or functional assay
Sequence (P01375 77-233 limits assumed): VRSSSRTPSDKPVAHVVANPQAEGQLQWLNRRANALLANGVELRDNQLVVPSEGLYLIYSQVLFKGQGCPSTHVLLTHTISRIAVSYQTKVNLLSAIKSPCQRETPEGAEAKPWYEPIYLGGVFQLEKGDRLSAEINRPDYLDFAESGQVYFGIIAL
Let's look at some binders and their measured TNF-α neutralization assay IC50 (nM), L929 cells.
endpoint.label: TNF-α neutralization assay IC50 (nM), L929 cells

{"columns": ["binder", "value.measured"],
 "data": [
  ["AB246 (antibody, V domains shown, also called hMAK195VH.1a / hMAK195VL.2) VH: EVQLQESGPGLVKPSETLSLTCTVSGFSLSDYGVNWVRQPPGKGLEWLGMIWGDGSTDYDSTLKSRLTISKDNSKSQISLKLSSVTAADTAVYYCAREWHHGPVAYWGQGTLVTVSS VL: EIVMTQSPATLSLSPGERATLSCKASQAVSSAVAWYQQKPGQAPRLLIYWASTRHTGIPARFSGSGSGTDFTLTISSLQPEDFAVYYCQQHYSTPFTFGQGTKLEIK", 0.099],
  ["AB259 (antibody, V domains shown, also called hMAK195VH.2a / hMAK195VL.2a) VH: EVQLVESGGGLVQPGGSLRLSCAVSGFTLSDYGVNWVRQAPGKGLEWLGMIWGDGSTDYDSTLKSRLTISKDNSKSTIYLQMNSLRAEDTAVYYCAREWHHGPVAYWGQGTLVTVSS VL: EIVMTQSPATLSLSPGERATLSCKASQAVSSAVAWYQQKPGQSPRLLIYWASTRHTGVPARFSGSGSGTDFTLTISSLQPEDFAVYYCQQHYSTPFTFGQGTKLEIK", 0.071],
  ["AB258 (antibody, V domains shown, also called hMAK195VH.2a / hMAK195VL.2) VH: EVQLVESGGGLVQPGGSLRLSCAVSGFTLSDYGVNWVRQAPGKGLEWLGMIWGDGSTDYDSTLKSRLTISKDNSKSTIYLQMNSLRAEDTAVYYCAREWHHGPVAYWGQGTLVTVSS VL: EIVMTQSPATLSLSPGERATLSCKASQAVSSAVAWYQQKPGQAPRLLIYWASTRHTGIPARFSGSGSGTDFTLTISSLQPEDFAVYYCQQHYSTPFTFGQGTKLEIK", 0.078],
  ["AB262 (antibody, V domains shown, also called hMAK195VH.2b / hMAK195VL.2) VH: EVQLVESGGGLVQPGGSLRLSCAASGFTLSDYGVNWVRQAPGKGLEWVSMIWGDGSTDYDSTLKSRFTISKDNSKNTLYLQMNSLRAEDTAVYYCAREWHHGPVAYWGQGTLVTVSS VL: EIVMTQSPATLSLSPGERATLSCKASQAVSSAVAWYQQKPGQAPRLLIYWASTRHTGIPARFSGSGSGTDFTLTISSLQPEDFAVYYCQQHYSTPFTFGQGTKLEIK", 0.218],
  ["AB242 (antibody, V domains shown, also called hMAK195VH.1 / hMAK195VL.2) VH: EVQLQESGPGLVKPSETLSLTCTVSGGSISDYGVNWIRQPPGKGLEWIGMIWGDGSTDYDSTLKSRVTISVDTSKNQFSLKLSSVTAADTAVYYCAREWHHGPVAYWGQGTLVTVSS VL: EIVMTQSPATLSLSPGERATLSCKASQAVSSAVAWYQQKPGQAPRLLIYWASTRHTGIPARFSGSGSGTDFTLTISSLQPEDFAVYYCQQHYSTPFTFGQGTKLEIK", 25.1],
  ["AB260 (antibody, V domains shown, also called hMAK195VH.2b / hMAK195VL.1) VH: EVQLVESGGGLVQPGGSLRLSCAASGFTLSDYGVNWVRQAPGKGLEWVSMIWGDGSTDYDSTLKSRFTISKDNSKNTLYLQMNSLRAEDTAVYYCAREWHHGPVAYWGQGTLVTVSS VL: DIQMTQSPSSLSASVGDRVTITCKASQAVSSAVAWYQQKPGKAPKLLIYWASTRHTGVPSRFSGSGSGTDFTLTISSLQPEDFATYYCQQHYSTPFTFGQGTKLEIK", 0.093],
  ["AB247 (antibody, V domains shown, also called hMAK195VH.1a / hMAK195VL.2a) VH: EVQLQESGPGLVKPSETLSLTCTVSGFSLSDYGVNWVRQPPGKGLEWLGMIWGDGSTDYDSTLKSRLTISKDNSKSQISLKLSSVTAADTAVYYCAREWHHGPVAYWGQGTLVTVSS VL: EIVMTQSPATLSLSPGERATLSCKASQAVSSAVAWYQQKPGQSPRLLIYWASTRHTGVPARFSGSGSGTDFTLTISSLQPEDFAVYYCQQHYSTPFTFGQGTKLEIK", 0.186]
]}

The values you see were collected from patent US20110250130A1.
